# Assay info: Half-life in […] Phosphate buffer at pH 7.4(37 degrees C)
# Assay type: ADME
Test readout: half-life (h)
Numbers only, in h.

These solved cases illustrate the format of a correct answer.
Compound | Unit symbol | Measurement
CNP(=O)(OCCC(OC(C)=O)OC(C)=O)N(CCCl)CCCl (stereo not given) | h | 42
CC(=O)OC(CCOP(N)(=O)N(CCCl)CCCl)OC(C)=O (stereo not given) | h | 38
CCN(CC)P(=O)(OCCC(OC(C)=O)OC(C)=O)N(CCCl)CCCl (stereo not given) | h | 37
CC(=O)OC(CCOP(=O)(N(C)C)N(CCCl)CCCl)OC(C)=O (stereo not given) | h | 36

Challenge: Return the recorded half-life value; entry: CCNP(=O)(OCCC(OC(C)=O)OC(C)=O)N(CCCl)CCCl (stereo not given)
Response given: 40

* * *

# Tested on: carboxylate esterase
# Assay info: Half-life in […] at pH 7.4(37 degrees C) in the presence of pig Liver Carboxylate Esterase
# Assay type: ADME, Sus scrofa
# Assay context: pig liver carboxylate esterase in phosphate buffer
Test readout: half-life (s)
Answers are plain numbers, in s.

These solved cases illustrate the format of a correct answer.
Compound | Test readout | Unit symbol | Measurement
CNP(=O)(OCCC(OC(C)=O)OC(C)=O)N(CCCl)CCCl (stereo not given) | half-life | s | 42
CC(=O)OC(CCOP(N)(=O)N(CCCl)CCCl)OC(C)=O (stereo not given) | half-life | s | 36
CC(=O)OC(CCOP(=O)(N(C)C)N(CCCl)CCCl)OC(C)=O (stereo not given) | half-life | s | 36

// each compound listed below needs its half-life
1. CCN(CC)P(=O)(OCCC(OC(C)=O)OC(C)=O)N(CCCl)CCCl (stereo not given)
2. CCNP(=O)(OCCC(OC(C)=O)OC(C)=O)N(CCCl)CCCl (stereo not given)

Response given:
40
42

// provenance: ChEMBL document CHEMBL1125866
